Origin of values: paper PMC8777244

Biological target: Dansyl-labeled CaM (UniProt P0DP23 1-149, Dansyl label (site not stated))
Test: other fluorescence titration
Where no end group is shown, it is not given here. MBP = maltose binding protein fusion

>  <Binder>
MBP-fused human Nox5β dehydrogenase domain residues 528-719 (domain or fragment) PTRRIFASEHAVLIGAGIGITPFASILQSIMYRHQKRKHTCPSCQHSWIEGVQDNMKLHKVDFIWINRDQRSFEWFVSLLTKLEMDQAEEAQYGRFLELHMYMTSALGKNDMKAIGLQMALDLLANKEKKDSITGLQTRTQPGRPDWSKVFQKVAAEKKGKVQVFFCGSPALAKVLKGHCEKFGFRFFQENF

>  <stoichiometry N>
0.92 [Peptide]/[Protein]

$$$$
>  <Binder>
MBP-fused human Nox5β dehydrogenase domain residues 584-719 (domain or fragment, UniProt Q96PH1-4 584-719, looked up) KLHKVDFIWINRDQRSFEWFVSLLTKLEMDQAEEAQYGRFLELHMYMTSALGKNDMKAIGLQMALDLLANKEKKDSITGLQTRTQPGRPDWSKVFQKVAAEKKGKVQVFFCGSPALAKVLKGHCEKFGFRFFQENF

>  <stoichiometry N>
0.89 [Peptide]/[Protein]

$$$$
>  <Binder>
MBP-fused human Nox5β dehydrogenase domain residues 665-719 (domain or fragment, cysteine pairing not given here) {MBP}-TRTQPGRPDWSKVFQKVAAEKKGKVQVFFCGSPALAKVLKGHCEKFGFRFFQENF

>  <stoichiometry N>
0.92 [Peptide]/[Protein]

$$$$
>  <Binder>
MBP-fused human Nox5β dehydrogenase domain residues 605-719 (domain or fragment) SLLTKLEMDQAEEAQYGRFLELHMYMTSALGKNDMKAIGLQMALDLLANKEKKDSITGLQTRTQPGRPDWSKVFQKVAAEKKGKVQVFFCGSPALAKVLKGHCEKFGFRFFQENF

>  <stoichiometry N>
1.02 [Peptide]/[Protein]

$$$$
